SETTINGS: in ethanol, 318.15 K
OBSERVATION TYPE: solubility (mole fraction)
Lab note: write the figure by itself, no unit.

Dear colleague, I am looking for the recorded solubility (mole fraction) of the following compound: Cc1ncc(COP(=O)(O)O)c(C=O)c1O.O 8.59e-06

---

SETTINGS: in water, 283.15 K
OBSERVATION TYPE: solubility (mole fraction)
Lab note: write the figure by itself, no unit.

Dear colleague, I am looking for the recorded solubility (mole fraction) of the following molecule: Cc1ncc(COP(=O)(O)O)c(C=O)c1O.O 0.000247

---

SETTINGS: in methanol, 283.15 K
OBSERVATION TYPE: solubility (mole fraction)
Lab note: write the figure by itself, no unit.

Dear colleague, I am looking for the recorded solubility (mole fraction) of the following molecule: Cc1ncc(COP(=O)(O)O)c(C=O)c1O.O 5.92e-06

---

SETTINGS: in methanol, 278.15 K
OBSERVATION TYPE: solubility (mole fraction)
Lab note: write the figure by itself, no unit.

Dear colleague, I am looking for the recorded solubility (mole fraction) of the following molecule: Cc1ncc(COP(=O)(O)O)c(C=O)c1O.O 4.5e-06

---

SETTINGS: in isopropanol, 308.15 K
OBSERVATION TYPE: solubility (mole fraction)
Lab note: write the figure by itself, no unit.

Dear colleague, I am looking for the recorded solubility (mole fraction) of the following molecule: Cc1ncc(COP(=O)(O)O)c(C=O)c1O.O 5.66e-06

---

SETTINGS: in ethanol, 283.15 K
OBSERVATION TYPE: solubility (mole fraction)
Lab note: write the figure by itself, no unit.

Dear colleague, I am looking for the recorded solubility (mole fraction) of the following molecule: Cc1ncc(COP(=O)(O)O)c(C=O)c1O.O 3.12e-06

---

SETTINGS: in acetone, 288.15 K
OBSERVATION TYPE: solubility (mole fraction)

Dear colleague, I am looking for the recorded solubility (mole fraction) of the following compound: Cc1ncc(COP(=O)(O)O)c(C=O)c1O.O 8.7e-07

---

SETTINGS: in methanol, 313.15 K
OBSERVATION TYPE: solubility (mole fraction)
Lab note: write the figure by itself, no unit.

Dear colleague, I am looking for the recorded solubility (mole fraction) of the following compound: Cc1ncc(COP(=O)(O)O)c(C=O)c1O.O 4.17e-05

---

SETTINGS: in ethanol, 313.15 K
OBSERVATION TYPE: solubility (mole fraction)
Lab note: write the figure by itself, no unit.

Dear colleague, I am looking for the recorded solubility (mole fraction) of the following compound: Cc1ncc(COP(=O)(O)O)c(C=O)c1O.O 7.22e-06

---

SETTINGS: in isopropanol, 318.15 K
OBSERVATION TYPE: solubility (mole fraction)
Lab note: write the figure by itself, no unit.

Dear colleague, I am looking for the recorded solubility (mole fraction) of the following compound: Cc1ncc(COP(=O)(O)O)c(C=O)c1O.O 9.17e-06

---

SETTINGS: in ethanol, 278.15 K
OBSERVATION TYPE: solubility (mole fraction)
Lab note: write the figure by itself, no unit.

Dear colleague, I am looking for the recorded solubility (mole fraction) of the following molecule: Cc1ncc(COP(=O)(O)O)c(C=O)c1O.O 2.81e-06

---

SETTINGS: in isopropanol, 298.15 K
OBSERVATION TYPE: solubility (mole fraction)
Lab note: write the figure by itself, no unit.

Dear colleague, I am looking for the recorded solubility (mole fraction) of the following molecule: Cc1ncc(COP(=O)(O)O)c(C=O)c1O.O 3.73e-06

---

SETTINGS: in acetone, 293.15 K
OBSERVATION TYPE: solubility (mole fraction)
Lab note: write the figure by itself, no unit.

Dear colleague, I am looking for the recorded solubility (mole fraction) of the following molecule: Cc1ncc(COP(=O)(O)O)c(C=O)c1O.O 1.26e-06

---

SETTINGS: in water, 313.15 K
OBSERVATION TYPE: solubility (mole fraction)
Lab note: write the figure by itself, no unit.

Dear colleague, I am looking for the recorded solubility (mole fraction) of the following molecule: Cc1ncc(COP(=O)(O)O)c(C=O)c1O.O 0.00066

---

SETTINGS: in isopropanol, 313.15 K
OBSERVATION TYPE: solubility (mole fraction)
Lab note: write the figure by itself, no unit.

Dear colleague, I am looking for the recorded solubility (mole fraction) of the following compound: Cc1ncc(COP(=O)(O)O)c(C=O)c1O.O 7.04e-06

---

SETTINGS: in water, 318.15 K
OBSERVATION TYPE: solubility (mole fraction)
Lab note: write the figure by itself, no unit.

Dear colleague, I am looking for the recorded solubility (mole fraction) of the following compound: Cc1ncc(COP(=O)(O)O)c(C=O)c1O.O 0.000803

---

SETTINGS: in methanol, 298.15 K
OBSERVATION TYPE: solubility (mole fraction)
Lab note: write the figure by itself, no unit.

Dear colleague, I am looking for the recorded solubility (mole fraction) of the following compound: Cc1ncc(COP(=O)(O)O)c(C=O)c1O.O 1.83e-05

---

SETTINGS: in methanol, 318.15 K
OBSERVATION TYPE: solubility (mole fraction)
Lab note: write the figure by itself, no unit.

Dear colleague, I am looking for the recorded solubility (mole fraction) of the following compound: Cc1ncc(COP(=O)(O)O)c(C=O)c1O.O 5.38e-05

---

SETTINGS: in methanol, 293.15 K
OBSERVATION TYPE: solubility (mole fraction)
Lab note: write the figure by itself, no unit.

Dear colleague, I am looking for the recorded solubility (mole fraction) of the following molecule: Cc1ncc(COP(=O)(O)O)c(C=O)c1O.O 1.33e-05

---

SETTINGS: in acetone, 278.15 K
OBSERVATION TYPE: solubility (mole fraction)
Lab note: write the figure by itself, no unit.

Dear colleague, I am looking for the recorded solubility (mole fraction) of the following compound: Cc1ncc(COP(=O)(O)O)c(C=O)c1O.O 4.8e-07

---

SETTINGS: in water, 298.15 K
OBSERVATION TYPE: solubility (mole fraction)
Lab note: write the figure by itself, no unit.

Dear colleague, I am looking for the recorded solubility (mole fraction) of the following molecule: Cc1ncc(COP(=O)(O)O)c(C=O)c1O.O 0.000388

---

SETTINGS: in water, 303.15 K
OBSERVATION TYPE: solubility (mole fraction)
Lab note: write the figure by itself, no unit.

Dear colleague, I am looking for the recorded solubility (mole fraction) of the following compound: Cc1ncc(COP(=O)(O)O)c(C=O)c1O.O 0.000465

---

SETTINGS: in acetone, 298.15 K
OBSERVATION TYPE: solubility (mole fraction)
Lab note: write the figure by itself, no unit.

Dear colleague, I am looking for the recorded solubility (mole fraction) of the following compound: Cc1ncc(COP(=O)(O)O)c(C=O)c1O.O 1.74e-06

---

SETTINGS: in water, 278.15 K
OBSERVATION TYPE: solubility (mole fraction)
Lab note: write the figure by itself, no unit.

Dear colleague, I am looking for the recorded solubility (mole fraction) of the following molecule: Cc1ncc(COP(=O)(O)O)c(C=O)c1O.O 0.000216

---

SETTINGS: in water, 293.15 K
OBSERVATION TYPE: solubility (mole fraction)
Lab note: write the figure by itself, no unit.

Dear colleague, I am looking for the recorded solubility (mole fraction) of the following molecule: Cc1ncc(COP(=O)(O)O)c(C=O)c1O.O 0.000333

---

SETTINGS: in ethanol, 303.15 K
OBSERVATION TYPE: solubility (mole fraction)
Lab note: write the figure by itself, no unit.

Dear colleague, I am looking for the recorded solubility (mole fraction) of the following compound: Cc1ncc(COP(=O)(O)O)c(C=O)c1O.O 4.86e-06

---

SETTINGS: in isopropanol, 293.15 K
OBSERVATION TYPE: solubility (mole fraction)
Lab note: write the figure by itself, no unit.

Dear colleague, I am looking for the recorded solubility (mole fraction) of the following molecule: Cc1ncc(COP(=O)(O)O)c(C=O)c1O.O 3.2e-06

---

SETTINGS: in acetone, 283.15 K
OBSERVATION TYPE: solubility (mole fraction)
Lab note: write the figure by itself, no unit.

Dear colleague, I am looking for the recorded solubility (mole fraction) of the following molecule: Cc1ncc(COP(=O)(O)O)c(C=O)c1O.O 6.8e-07

---

SETTINGS: in water, 288.15 K
OBSERVATION TYPE: solubility (mole fraction)
Lab note: write the figure by itself, no unit.

Dear colleague, I am looking for the recorded solubility (mole fraction) of the following compound: Cc1ncc(COP(=O)(O)O)c(C=O)c1O.O 0.000284
